Quick list: kon per entry.
Biological target: T1, recombinant human ASM protein (human, UniProt P17405 47-630)
T1 construct: Recombinant human ASM in solution; also called acid sphingomyelinase (ASM) protein
T1 sequence: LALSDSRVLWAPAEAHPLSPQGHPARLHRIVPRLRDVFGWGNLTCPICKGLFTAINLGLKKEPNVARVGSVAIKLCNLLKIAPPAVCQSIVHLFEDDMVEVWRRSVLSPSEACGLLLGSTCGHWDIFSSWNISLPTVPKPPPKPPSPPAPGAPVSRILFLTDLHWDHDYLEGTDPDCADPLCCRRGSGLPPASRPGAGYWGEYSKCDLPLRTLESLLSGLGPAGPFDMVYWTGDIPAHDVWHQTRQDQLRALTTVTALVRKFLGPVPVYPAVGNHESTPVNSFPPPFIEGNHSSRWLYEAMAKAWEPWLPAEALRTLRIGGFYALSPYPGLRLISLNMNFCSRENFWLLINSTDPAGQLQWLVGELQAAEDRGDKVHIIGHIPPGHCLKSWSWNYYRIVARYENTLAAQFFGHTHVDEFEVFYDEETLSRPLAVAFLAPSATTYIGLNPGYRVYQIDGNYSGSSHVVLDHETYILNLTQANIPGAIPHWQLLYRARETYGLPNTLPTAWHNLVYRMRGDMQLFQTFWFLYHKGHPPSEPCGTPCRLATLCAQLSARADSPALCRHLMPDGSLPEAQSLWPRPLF
Experiment: BLI (Octet), antibody on AHC sensor
// return numeric value only (unit: M⁻¹ s⁻¹, not printed)

| binder | measurement.units | kon |
| --- | --- | --- |
| #9104a-C3 (antibody, human IgG4 S228P, lambda, V domains shown, VH of #9104v-H13 with VL of #9104v-L23; full-length IgG, lambda) VH: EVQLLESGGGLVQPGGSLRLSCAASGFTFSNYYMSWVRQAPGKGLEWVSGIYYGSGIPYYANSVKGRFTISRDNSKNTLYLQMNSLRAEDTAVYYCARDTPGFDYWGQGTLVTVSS VL: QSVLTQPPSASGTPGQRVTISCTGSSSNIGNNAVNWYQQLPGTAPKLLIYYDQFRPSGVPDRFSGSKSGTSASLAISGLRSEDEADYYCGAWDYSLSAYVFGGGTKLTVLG | M⁻¹ s⁻¹ | 259000 |

--- query ---
Please fill in: kon reported for #9104a-C7 (antibody, human IgG4 S228P, lambda, V domains shown, VH of #9104v-H31 with VL of #9104v-L23; full-length IgG, lambda) VH: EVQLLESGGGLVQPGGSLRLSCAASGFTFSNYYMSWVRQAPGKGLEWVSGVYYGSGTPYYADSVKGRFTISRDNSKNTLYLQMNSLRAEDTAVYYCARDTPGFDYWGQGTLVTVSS VL: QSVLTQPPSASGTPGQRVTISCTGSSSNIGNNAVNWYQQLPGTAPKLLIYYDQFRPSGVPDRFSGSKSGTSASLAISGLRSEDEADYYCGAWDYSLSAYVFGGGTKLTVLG = 300000
